# Test system: Streptococcus pyogenes
# METHOD_SUMMARY: The compound was tested in vitro for minimum inhibitory concentration against Streptococcus pyogenes
# Assay type: functional
Documented MIC across a set of compounds
Note: unit µg/mL is implicit; provide only the numeric part.

Completed entries (count: 3):
*Q* State MIC (Streptococcus pyogenes) of O=C(COc1ccccc1)N[C@@H]1C(=O)N2C(C(=O)O)=C(COC(=O)N3CCN(c4cc5c(cc4F)c(=O)c(C(=O)O)cn5C4CC4)CC3)CS[C@H]12 .
*A* 0.031

*Q* Name the value of MIC reported for Nc1nc(/C(=N/OCC(=O)O)C(=O)N[C@@H]2C(=O)N3C(C(=O)O)=C(COC(=O)N4CCN(c5cc6c(cc5F)c(=O)c(C(=O)O)cn6C5CC5)CC4)CS[C@H]23)cs1 when tested on Streptococcus pyogenes.
*A* 0.063

*Q* Answer with MIC of CCN1CCN(C(=O)NC(C(=O)N[C@@H]2C(=O)N3C(C(=O)O)=C(COC(=O)N4CCN(c5cc6c(cc5F)c(=O)c(C(=O)O)cn6C5CC5)CC4)CS[C@H]23)c2ccccc2)C(=O)C1=O (some centres not stated) measured for Streptococcus pyogenes.
*A* 0.063

Now take the following compound into account.
*Q* System Streptococcus pyogenes. Read-out MIC. Item CC(C)(O/N=C(\C(=O)N[C@@H]1C(=O)N2C(C(=O)O)=C(COC(=O)N3CCN(c4cc5c(cc4F)c(=O)c(C(=O)O)cn5C4CC4)CC3)CS[C@H]12)c1csc(N)n1)C(=O)O . Report value.
*A* 0.25

* * *

# Tested on: Escherichia coli
# METHOD_SUMMARY: Minimum inhibitory concentration required to inhibit the activity of Escherichia coli UB1005
# Assay type: functional
QUANTITY_NAME: MIC (µg/mL)
Write it as a number; the unit µg/mL goes unstated.

Below are worked cases with known answers.
*Q* # return recorded MIC for entry O=CN[C@@H]1C(=O)N2C(C(=O)O)=C(COC(=O)N3CCN(c4cc5c(cc4F)c(=O)c(C(=O)O)cn5C4CC4)CC3)CS[C@H]12
*A* 2

*Q* State, in one line, measured MIC of CCN1CCN(C(=O)NC(C(=O)N[C@@H]2C(=O)N3C(C(=O)O)=C(COC(=O)N4CCN(c5cc6c(cc5F)c(=O)c(C(=O)O)cn6C5CC5)CC4)CS[C@H]23)c2ccccc2)C(=O)C1=O (stereo not given in full)
*A* 1

*Q* Supply recorded MIC for CO/N=C(\C(=O)N[C@@H]1C(=O)N2C(C(=O)O)=C(COC(=O)N3CCN(c4cc5c(cc4F)c(=O)c(C(=O)O)cn5C4CC4)CC3)CS[C@H]12)c1csc(N)n1 here.
*A* 0.5

*Q* Specify measured MIC for O=C(COc1ccccc1)N[C@@H]1C(=O)N2C(C(=O)O)=C(COC(=O)N3CCN(c4cc5c(cc4F)c(=O)c(C(=O)O)cn5C4CC4)CC3)CS[C@H]12 .
*A* 2

Pending compound:
*Q* Look up MIC of NC(=O)CO/N=C(\C(=O)N[C@@H]1C(=O)N2C(C(=O)O)=C(COC(=O)N3CCN(c4cc5c(cc4F)c(=O)c(C(=O)O)cn5C4CC4)CC3)CS[C@H]12)c1csc(N)n1 and report it.
*A* 1

* * *

Inhibitory concentration: recorded values
# System: Escherichia coli
# METHOD_SUMMARY: The compound was evaluated for the inhibition of [14C]- Pen G binding to Escherichia coli UB1005 penicillin-binding protein 3 60 kDa.

*Q* Report Inhibitory concentration, nothing else, for this compound: O=C(COc1ccccc1)N[C@@H]1C(=O)N2C(C(=O)O)=C(COC(=O)N3CCN(c4cc5c(cc4F)c(=O)c(C(=O)O)cn5C4CC4)CC3)CS[C@H]12
*A* > 100 µg/mL

*Q* Kindly indicate its recorded Inhibitory concentration. Item: Nc1nc(/C(=N/OCC(=O)O)C(=O)N[C@@H]2C(=O)N3C(C(=O)O)=C(COC(=O)N4CCN(c5cc6c(cc5F)c(=O)c(C(=O)O)cn6C5CC5)CC4)CS[C@H]23)cs1
*A* < 0.1 µg/mL

*Q* Please report the measured Inhibitory concentration for NC(=O)CO/N=C(\C(=O)N[C@@H]1C(=O)N2C(C(=O)O)=C(COC(=O)N3CCN(c4cc5c(cc4F)c(=O)c(C(=O)O)cn5C4CC4)CC3)CS[C@H]12)c1csc(N)n1
*A* < 0.1 µg/mL

Others:
*Q* Consider the compound CO/N=C(\C(=O)N[C@@H]1C(=O)N2C(C(=O)O)=C(COC(C)=O)CS[C@H]12)c1csc(N)n1 [CEFOTAXIME] . State its measured Inhibitory concentration.
*A* < 0.1 µg/mL

*Q* Indicate its recorded Inhibitory concentration; the compound in question is CC(C)(O/N=C(\C(=O)N[C@@H]1C(=O)N2C(C(=O)O)=C(COC(=O)N3CCN(c4cc5c(cc4F)c(=O)c(C(=O)O)cn5C4CC4)CC3)CS[C@H]12)c1csc(N)n1)C(=O)O
*A* < 0.1 µg/mL
